Origin of the recorded values: patent US20180244769A1

Assay Target: human P2X7 (hP2X7) (human) (UniProt Q99572)
Sequence (Q99572 whole entry): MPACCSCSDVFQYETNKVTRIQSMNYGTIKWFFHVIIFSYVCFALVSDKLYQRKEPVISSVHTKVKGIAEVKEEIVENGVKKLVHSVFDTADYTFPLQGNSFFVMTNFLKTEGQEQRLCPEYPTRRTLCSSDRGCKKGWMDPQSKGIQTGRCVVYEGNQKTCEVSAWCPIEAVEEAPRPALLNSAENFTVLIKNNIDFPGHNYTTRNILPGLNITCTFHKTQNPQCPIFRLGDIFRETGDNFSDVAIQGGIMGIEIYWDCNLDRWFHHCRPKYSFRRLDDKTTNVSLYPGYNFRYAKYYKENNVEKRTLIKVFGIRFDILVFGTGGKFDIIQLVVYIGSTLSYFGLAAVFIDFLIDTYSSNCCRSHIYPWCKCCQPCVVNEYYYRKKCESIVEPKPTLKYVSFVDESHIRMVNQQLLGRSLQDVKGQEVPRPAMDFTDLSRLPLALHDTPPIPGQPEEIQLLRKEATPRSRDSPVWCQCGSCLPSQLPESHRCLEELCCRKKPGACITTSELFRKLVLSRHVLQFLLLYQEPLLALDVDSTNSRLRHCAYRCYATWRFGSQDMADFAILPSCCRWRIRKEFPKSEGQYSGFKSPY
Measurement Protocol: cell-based or functional assay
Result Type: IC50 [ng/ml], blockade of L-selectin (CD62L) shedding in transfected HEK cells, 4 mM ATP (ng/mL)

>  <Binder>
1c81-Fc (Nb 1c81 fused to the Fc-domain of mouse IgG1) (Fc fusion, not shown: small tags and cut ends; a dimerising Fc or GST) EVQLVESGGKLVQAGGSLRLSCSASGRTFSFSTSTMGWFRQAPGKELEFVAAIDWSDFNTYYADSVKGRFTISRHNPRNSVYLQLNSLKPEDTAVYYCAAHSETRGGTRYFDRPSLYNYWGQGTQVTVSSA

>  <Reported Measurement>
400

$$$$
>  <Binder>
3c23-Fc (Nb 3c23 fused to the Fc-domain of mouse IgG1) (Fc fusion, Bivalent N-terminally FLAG-tagged Nb-Fc fusion protein made in HEK cells; Used unconjugated or conjugated to Alexa647; also called WD3c23Fc; Nb 3c23-Fc; not shown: N-terminal FLAG tag; Fc-domain of mouse IgG1) EVQLVESGGGLVQAGGSLRLSCAASGRTFRHYAMGWFRQAPGKEREFVAAISSYGSTDYGDSVKGRFTISRDDAKNTVPLQMNSLKPEDTAVYYCAAADETLGAVPNFRLHEKYEYEYWGQGTQVTVSSA

>  <Reported Measurement>
50

$$$$

a. Nb 3c23 (monovalent) (VHH) VHH: EVQLVESGGGLVQAGGSLRLSCAASGRTFRHYAMGWFRQAPGKEREFVAAISSYGSTDYGDSVKGRFTISRDDAKNTVPLQMNSLKPEDTAVYYCAAADETLGAVPNFRLHEKYEYEYWGQGTQVTVSS
b. Nb 1c81 (monovalent) (VHH) VHH: EVQLVESGGKLVQAGGSLRLSCSASGRTFSFSTSTMGWFRQAPGKELEFVAAIDWSDFNTYYADSVKGRFTISRHNPRNSVYLQLNSLKPEDTAVYYCAAHSETRGGTRYFDRPSLYNYWGQGTQVTVSS
Q. Record comparison, field IC50 [ng/ml], blockade of L-selectin (CD62L) shedding in transfected HEK cells, 4 mM ATP: mark the lower of a and b . Kindly give the label for the entry you pick.
A. a
(a: 40 ng/mL, b: 1500 ng/mL)
